This collection of values is drawn from patent US20180037644A1.

Biological target: T1, human IL-33 (mm2) (human, UniProt O95760 112-270)
T1 chain: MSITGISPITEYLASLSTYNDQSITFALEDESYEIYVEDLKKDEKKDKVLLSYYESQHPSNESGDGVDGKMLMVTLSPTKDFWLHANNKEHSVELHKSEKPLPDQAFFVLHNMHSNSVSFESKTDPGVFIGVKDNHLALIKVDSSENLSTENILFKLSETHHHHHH
Test: cell-based or functional assay
quantity-name: IC50, HEK293 ST2 NFkB (nM)
All answers are understood in nM, so give the number only.

Could you tell me which IC50, HEK293 ST2 NFkB is on file for 30B11 CDR graft_R71V (antibody, human IgG1, kappa, V domains shown) VH: EVQLVESGGGLVQPGGSLRLSCAASGFTFTDYWVSWVRQAPGKGLEWVAEIYPNSGADNFNENFKGRFTISVDNAKNSLYLQMNSLRAEDTAVYYCARGPYYYSTQIIFAYWGQGTLVTVSS VL: DIQMTQSPSSLSASVGDRVTITCKASQNVGNNLAWYQQKPGKAPKLLIYYASNRYTGVPSRFSGSGSGTDFTLTISSLQPEDFATYYCQRIYNSPPTFGGGTKVEIKR ?
0.278

Could you tell me which IC50, HEK293 ST2 NFkB is on file for 9B3 CDR graft (antibody, human IgG1, kappa, V domains shown) VH: EVQLVESGGGLVQPGGSLRLSCAASGFTFSNYWMYWVRQAPGKGLEWVASINNDGGNTYYLDSVKGRFTISRDNAKNSLYLQMNSLRAEDTAVYYCARGHYSYSSYSFSYWGQGTLVTVSS VL: DIQMTQSPSSLSASVGDRVTITCKASHNINKHLDWYQQKPGKAPKLLIYFTNNLQTGVPSRFSGSGSGTDFTLTISSLQPEDFATYYCFQYNSGWTFGGGTKVEIKR ?
0.52

Could you tell me which IC50, HEK293 ST2 NFkB is on file for 30B11 CDR graft (antibody, human IgG1, kappa, V domains shown) VH: EVQLVESGGGLVQPGGSLRLSCAASGFTFTDYWVSWVRQAPGKGLEWVAEIYPNSGADNFNENFKGRFTISRDNAKNSLYLQMNSLRAEDTAVYYCARGPYYYSTQIIFAYWGQGTLVTVSS VL: DIQMTQSPSSLSASVGDRVTITCKASQNVGNNLAWYQQKPGKAPKLLIYYASNRYTGVPSRFSGSGSGTDFTLTISSLQPEDFATYYCQRIYNSPPTFGGGTKVEIKR ?
0.368
